The origin of these recorded values is patent US20250041437A1.

# TARGET_OR_SYSTEM: T1, recombinant human MUC1-SEA (MUC1 antigen, Acrobiosystems, Cat: MU1-H52H9) (human, UniProt P15941 1039-1158)
# T1 construct: Bought protein, captured on an anti-His chip (so His-tagged)
# T1 sequence: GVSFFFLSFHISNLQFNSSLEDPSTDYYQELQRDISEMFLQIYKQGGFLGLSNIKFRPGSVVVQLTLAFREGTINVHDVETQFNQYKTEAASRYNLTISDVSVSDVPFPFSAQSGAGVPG
# EXPERIMENT_DESCRIPTION: SPR; MUC1 antigen captured on anti-His CM5 chip, antibody as analyte
For each entry below, report its koff value.
Number only, in s⁻¹; omit the unit.

Which value of koff has been reported for HM4 LM2 variant of humanized anti-MUC1 antibody SP66 (antibody, V domains shown, Humanized IgG expressed in CHO cells; only variable domains tied to the variant) VH: EIQLVQSGAEVKKPGSSVKVSCKVTGHSITRGSSWHWMRQAPGQGLEWIGYIHYGGGTSYNPSLKSRATLTRDTSTNTFYMELSSLRSEDTAFYFCARYSYDITYRWFFDVWGQGTLVTVSS VL: DIQMTQSPSTLSASVGDRVTITCRASQNIGTSIHWYQQKPGKAPKLLIKRASESISGVPSRFSGSGSGTEFTLTISSLQPDDFATYYCQQNNNWPLTFGQGTKVEVK in the records?
0.000261

// returns reported koff for input HM5 LM2 variant of humanized anti-MUC1 antibody SP66 (antibody, V domains shown, Humanized IgG expressed in CHO cells; only variable domains tied to the variant) VH: EIQLVQSGAEVKKPGSSVKVSCKVTGHSITRGSSWHWMRQAPGQGLEWIGYIHYGGGTSYNPSLKSRITITRDTSTNTFYMELSSLRSEDTAFYFCARYSYDITYRWFFDVWGQGTLVTVSS VL: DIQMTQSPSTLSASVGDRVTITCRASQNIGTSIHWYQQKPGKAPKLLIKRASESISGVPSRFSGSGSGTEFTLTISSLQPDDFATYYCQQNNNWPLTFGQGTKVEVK
0.000213

Requested field: koff. Item: HM2 LM2 variant of humanized anti-MUC1 antibody SP66 (antibody, V domains shown, Humanized IgG expressed in CHO cells; only variable domains tied to the variant) VH: EIQLVQSGAEVKKPGSSVKVSCKVTGHSITRGSSWHWMRQAPGQGLEWIGYIHYGGGTSYNPSLKSRITITRDTSTNTAYMELSSLRSEDTAFYFCARYSYDITYRWFFDVWGQGTLVTVSS VL: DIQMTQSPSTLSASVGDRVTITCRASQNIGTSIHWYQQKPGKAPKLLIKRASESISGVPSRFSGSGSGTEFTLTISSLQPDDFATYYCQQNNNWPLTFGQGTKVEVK
0.000255
